Molecular target: … (SEQ ID NO: 1)-HLA-A*02 complex (human)
Experiment: cell-based or functional assay
MEASUREMENT_NAME: EC50 (mel624), IFN-γ ELISPOT, T cell activation (nM)
Response body: numeric value in nM, unit text excluded.

Illustrative cases are given below, each with its answer.
>  <BINDER>
ImmTAC molecule a79b74 (TCR-anti-CD3 fusion) (TCR, part only; not given: anti-CD3 scFv, linker, constant regions, part only) TCR alpha, part: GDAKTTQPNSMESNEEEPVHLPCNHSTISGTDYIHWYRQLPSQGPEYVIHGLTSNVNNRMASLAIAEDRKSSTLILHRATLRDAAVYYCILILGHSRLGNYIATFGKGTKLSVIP TCR beta, part: DGGITQSPKYLFRKEGQNVTLSCEQNLNHDAMYWYRQDPGQGLRLIYYSQIMGDEQKGDIAEGYSVSREKKESFPLTVTSAQKNPTAFYLCASSWWTGGASPIRFGPGTRLTVT

>  <NUMERIC_VALUE>
0.00955

$$$$
>  <BINDER>
ImmTAC molecule a79b64 (TCR-anti-CD3 fusion) (TCR, part only; not given: anti-CD3 scFv, linker, constant regions, not shown: a dimerising Fc or GST) TCR alpha, part: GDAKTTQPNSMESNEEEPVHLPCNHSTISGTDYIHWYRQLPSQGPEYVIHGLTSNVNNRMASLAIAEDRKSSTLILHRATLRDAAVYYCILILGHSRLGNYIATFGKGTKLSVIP TCR beta, part: DGGITQSPKYLFRKEGQNVTLSCEQNLNHDAMYWYRQDPGQGLRLIYYSQIMNDEQKGDIAEGYSVSREKKESFPLTVTSAQKNPTAFYLCASSWWTGGSAPIRFGPGTRLTVT

>  <NUMERIC_VALUE>
0.0275

$$$$
>  <BINDER>
ImmTAC molecule a28b57 (TCR-anti-CD3 fusion) (TCR, part only; not given: anti-CD3 scFv, linker, constant regions, not shown: a dimerising Fc or GST) TCR alpha, part: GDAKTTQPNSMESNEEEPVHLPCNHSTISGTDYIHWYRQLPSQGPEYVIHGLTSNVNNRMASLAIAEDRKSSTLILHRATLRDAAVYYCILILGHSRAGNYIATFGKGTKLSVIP TCR beta, part: DGGITQSPKYLFRKEGQNVTLSCEQNLNHDAMYWYRQDPGQGLRLIYYSQIMGDEQKGDIAEGYSVSREKKESFPLTVTSAQKNPTAFYLCASSWWTSGASPISFGPGTRLTVT

>  <NUMERIC_VALUE>
0.0134

$$$$
>  <BINDER>
ImmTAC molecule a79b66 (TCR-anti-CD3 fusion) (TCR, part only; not given: anti-CD3 scFv, linker, constant regions, not shown: a dimerising Fc or GST) TCR alpha, part: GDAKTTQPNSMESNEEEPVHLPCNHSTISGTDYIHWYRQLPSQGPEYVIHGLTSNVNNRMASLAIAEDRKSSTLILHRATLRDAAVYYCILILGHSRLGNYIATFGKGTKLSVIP TCR beta, part: DGGITQSPKYLFRKEGQNVTLSCEQNLNHDAMYWYRQDPGQGLRLIYYSQIMGDEQKGDIAEGYSVSREKKESFPLTVTSAQKNPTAFYLCASSPWTGGSAPIRFGPGTRLTVT

>  <NUMERIC_VALUE>
0.0167

$$$$

So, ImmTAC molecule a28b58 (TCR-anti-CD3 fusion) (TCR, part only; not given: anti-CD3 scFv, linker, constant regions, not shown: a dimerising Fc or GST) TCR alpha, part: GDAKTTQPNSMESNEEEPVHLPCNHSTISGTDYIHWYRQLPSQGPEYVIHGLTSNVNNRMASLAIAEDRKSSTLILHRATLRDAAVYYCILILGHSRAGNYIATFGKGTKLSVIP TCR beta, part: DGGITQSPKYLFRKEGQNVTLSCEQNLNHDAMYWYRQDPGQGLRLIYYSQIMGDEQKGDIAEGYSVSREKKESFPLTVTSAQKNPTAFYLCASSWWTGGSSPISFGPGTRLTVT ? Its EC50 (mel624), IFN-γ ELISPOT, T cell activation was 0.012
